The reported numbers originate from patent US20180009892A1.

molecular target: T1, human ROR2-ECD (human, UniProt Q01974 34-403); assay: protein ELISA, phage
T1 construct: extracellular domain; also called hROR2
T1 sequence (Q01974 34-403): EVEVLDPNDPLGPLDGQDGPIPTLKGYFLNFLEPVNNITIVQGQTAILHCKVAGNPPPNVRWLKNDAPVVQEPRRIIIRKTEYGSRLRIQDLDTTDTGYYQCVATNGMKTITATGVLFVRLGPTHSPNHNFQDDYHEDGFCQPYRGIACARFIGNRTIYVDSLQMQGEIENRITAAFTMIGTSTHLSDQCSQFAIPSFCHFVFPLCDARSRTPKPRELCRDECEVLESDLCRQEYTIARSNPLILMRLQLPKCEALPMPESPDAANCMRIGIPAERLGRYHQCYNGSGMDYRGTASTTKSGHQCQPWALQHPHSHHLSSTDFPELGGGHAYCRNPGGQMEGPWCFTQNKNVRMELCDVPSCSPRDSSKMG
quantity measured: binding result

binder | data value
P601-112 (scFv, V domains shown) VH: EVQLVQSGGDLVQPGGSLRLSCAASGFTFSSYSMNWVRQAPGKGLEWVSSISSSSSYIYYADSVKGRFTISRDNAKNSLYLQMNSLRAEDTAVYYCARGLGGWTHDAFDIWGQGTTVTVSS VL: QSALTQPASVSGSPGQSITISCTGTSSDVGGYNYVSWYQQHPGKAPKLMIYDVSKRPSGVSNRFSGSKSGNTASLTISGLQAEDEADYYCSSYTGRSTVFGGGTKLTVL | no binding
P601-50 (scFv, V domains shown) VH: QVQLQQSGAEVKKPGASVKVSCKASGYTFSRYYIHWVRRAPGQGLEWMGLINPGGGSTNYAQKFQGRVTMTRDTSTNTVYLELSSLRSDDTAVYYCARDYGTIDARRFDFWGQGTLVTVSS VL: QSALTQPPSASGTPGQRVTISCPGSSSNIGSNYVYWYQQLPGTAPKLLIYRNNQRPSGVPDRFSGSKSGTSATLGITGLQTGDEADYYCGTWDSSLSAYVFGTGTKVTVL | no binding
